assay: in vivo; settings: mouse, im
# LD50 at 24 h per record follows

# compound, LD50 at 24 h
data = [
    ("C[n+]1ccccc1C=NNC(N)=O", "> 560 µmol/kg"),
    ("C[n+]1cccc(O)c1C=NNC(=O)C[n+]1ccccc1", "> 670 µmol/kg"),
    ("NC(=O)c1cc[n+](COC[n+]2ccccc2/C=N/O)cc1 [HI-6, reference compound]", "4500 µmol/kg"),
    ("C[n+]1cccc(O)c1C=NNC(=O)Nc1ccccc1.[Cl-]", "> 40 µmol/kg"),
    ("CON=Cc1c(O)ccc[n+]1C", "> 1970 µmol/kg"),
    ("C[n+]1cc(O)ccc1C=NO [Compound 1g, reference compound]", "> 514 µmol/kg"),
    ("C[n+]1cccc(O)c1C=NOCc1ccccc1", "> 880 µmol/kg"),
    ("C[n+]1cccc(O)c1C=NNC(N)=O.[Cl-]", "> 1100 µmol/kg"),
    ("COc1ccc(CON=Cc2c(O)ccc[n+]2C)cc1", "> 760 µmol/kg"),
]
